target: T1, IFN-αG (human, UniProt P01569 24-189); experiment: ProteOn SPR, cell supernatant;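 note: each binding measurement used just a single antigen concentration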
T1 construct: Recombinant, HEK293; also called IFN-α5
attribute measured: Kd (nM)
Give your result in nM as a bare value.

Worked set:
Fill in Kd for record IFWM3394 (antibody, IgG1, V domains shown, mAb; IgG1/kappa said of the parent and of selected mAbs; also called IFWB3129) VH: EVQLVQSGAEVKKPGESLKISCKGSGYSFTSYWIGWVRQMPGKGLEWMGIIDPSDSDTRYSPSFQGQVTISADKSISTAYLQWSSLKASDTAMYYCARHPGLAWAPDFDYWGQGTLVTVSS VL: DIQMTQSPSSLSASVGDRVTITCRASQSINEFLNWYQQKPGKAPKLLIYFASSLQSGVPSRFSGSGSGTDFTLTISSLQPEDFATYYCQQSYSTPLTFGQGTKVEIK
0.091

Fill in Kd for record IFWM3416 (antibody, IgG1, V domains shown, mAb; IgG1/kappa said of the parent and of selected mAbs; also called IFWB3151) VH: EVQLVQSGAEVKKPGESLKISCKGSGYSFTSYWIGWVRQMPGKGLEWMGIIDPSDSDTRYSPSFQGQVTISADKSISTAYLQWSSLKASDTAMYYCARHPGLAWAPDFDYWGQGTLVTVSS VL: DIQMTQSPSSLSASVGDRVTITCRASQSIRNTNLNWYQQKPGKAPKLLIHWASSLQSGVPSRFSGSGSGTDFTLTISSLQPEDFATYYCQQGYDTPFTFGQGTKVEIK
0.029

Fill in Kd for record IFWM3413 (antibody, IgG1, V domains shown, mAb; IgG1/kappa said of the parent and of selected mAbs; also called IFWB3148) VH: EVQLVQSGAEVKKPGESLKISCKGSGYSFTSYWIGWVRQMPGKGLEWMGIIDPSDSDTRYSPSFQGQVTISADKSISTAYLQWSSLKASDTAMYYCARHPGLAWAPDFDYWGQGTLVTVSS VL: DIQMTQSPSSLSASVGDRVTITCRASQSINYLNWYQQKPGKAPKLLIYGASSLQSGVPSRFSGSGSGTDFTLTISSLQPEDFATYYCQQSHDWPITFGQGTKVEIK
0.044

Fill in Kd for record IFWM3389 (antibody, IgG1, V domains shown, mAb; IgG1/kappa said of the parent and of selected mAbs; also called IFWB3124) VH: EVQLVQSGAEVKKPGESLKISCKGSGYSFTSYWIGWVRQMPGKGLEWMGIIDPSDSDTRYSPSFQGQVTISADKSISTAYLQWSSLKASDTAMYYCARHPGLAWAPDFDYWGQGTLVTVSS VL: DIQMTQSPSSLSASVGDRVTITCRASQSIDDFLNWYQQKPGKAPKLLIYFASSLQSGVPSRFSGSGSGTDFTLTISSLQPEDFATYYCQQSHTLPLTFGQGTKVEIK
0.033

Fill in Kd for record IFWM3392 (antibody, IgG1, V domains shown, mAb; IgG1/kappa said of the parent and of selected mAbs; also called IFWB3127) VH: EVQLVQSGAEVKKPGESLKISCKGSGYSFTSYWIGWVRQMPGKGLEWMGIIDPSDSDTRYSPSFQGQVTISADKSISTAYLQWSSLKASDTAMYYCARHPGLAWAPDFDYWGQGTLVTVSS VL: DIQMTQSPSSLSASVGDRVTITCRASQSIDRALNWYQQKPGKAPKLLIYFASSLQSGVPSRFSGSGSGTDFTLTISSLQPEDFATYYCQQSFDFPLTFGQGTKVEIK
0.019

More entries:
Fill in Kd for record IFWM3418 (antibody, IgG1, V domains shown, mAb; IgG1/kappa said of the parent and of selected mAbs; also called IFWB3153) VH: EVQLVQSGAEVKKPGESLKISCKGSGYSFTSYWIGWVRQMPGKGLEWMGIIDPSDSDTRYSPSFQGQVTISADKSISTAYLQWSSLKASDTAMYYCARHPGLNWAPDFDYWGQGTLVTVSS VL: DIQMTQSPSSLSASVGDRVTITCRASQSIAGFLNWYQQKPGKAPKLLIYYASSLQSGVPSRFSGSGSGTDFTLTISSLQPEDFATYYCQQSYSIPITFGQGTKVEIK
0.178

Fill in Kd for record IFWM3390 (antibody, IgG1, V domains shown, mAb; IgG1/kappa said of the parent and of selected mAbs; also called IFWB3125) VH: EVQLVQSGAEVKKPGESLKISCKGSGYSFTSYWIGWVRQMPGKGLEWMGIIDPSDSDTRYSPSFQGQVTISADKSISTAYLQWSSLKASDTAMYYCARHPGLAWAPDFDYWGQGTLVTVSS VL: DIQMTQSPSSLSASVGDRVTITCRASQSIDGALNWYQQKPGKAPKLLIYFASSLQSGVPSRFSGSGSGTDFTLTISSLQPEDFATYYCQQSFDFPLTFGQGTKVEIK
0.01

Fill in Kd for record IFWM3407 (antibody, IgG1, V domains shown, mAb; IgG1/kappa said of the parent and of selected mAbs; also called IFWB3142) VH: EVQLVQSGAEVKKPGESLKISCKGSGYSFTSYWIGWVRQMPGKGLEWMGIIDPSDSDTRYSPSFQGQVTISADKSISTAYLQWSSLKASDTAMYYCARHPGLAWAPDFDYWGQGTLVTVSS VL: DIQMTQSPSSLSASVGDRVTITCRASQSIRNNNLNWYQQKPGKAPKLLIHWASSLQSGVPSRFSGSGSGTDFTLTISSLQPEDFATYYCQQGYDTPFTFGQGTKVEIK
0.027

Fill in Kd for record IFWM3376 (antibody, IgG1, V domains shown, mAb; IgG1/kappa said of the parent and of selected mAbs; also called IFWB3111) VH: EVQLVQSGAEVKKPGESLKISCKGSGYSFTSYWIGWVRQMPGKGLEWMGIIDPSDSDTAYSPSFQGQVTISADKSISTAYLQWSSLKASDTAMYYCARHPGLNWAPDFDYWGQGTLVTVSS VL: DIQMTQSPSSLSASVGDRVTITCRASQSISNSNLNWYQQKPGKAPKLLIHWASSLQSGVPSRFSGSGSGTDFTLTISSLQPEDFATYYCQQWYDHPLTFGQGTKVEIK
0.048

Fill in Kd for record IFWM3384 (antibody, IgG1, V domains shown, mAb; IgG1/kappa said of the parent and of selected mAbs; also called IFWB3119) VH: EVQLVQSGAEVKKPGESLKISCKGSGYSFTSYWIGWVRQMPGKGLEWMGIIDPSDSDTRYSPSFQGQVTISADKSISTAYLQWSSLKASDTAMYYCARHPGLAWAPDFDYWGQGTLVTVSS VL: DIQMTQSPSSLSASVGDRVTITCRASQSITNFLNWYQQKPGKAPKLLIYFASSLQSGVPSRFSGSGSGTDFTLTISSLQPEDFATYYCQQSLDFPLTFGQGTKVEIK
0.022
